Biological target: Tyk2 kinase domain (DH1) (Homo sapiens (Human), UniProt P29597)
Sequence (P29597 897-1176): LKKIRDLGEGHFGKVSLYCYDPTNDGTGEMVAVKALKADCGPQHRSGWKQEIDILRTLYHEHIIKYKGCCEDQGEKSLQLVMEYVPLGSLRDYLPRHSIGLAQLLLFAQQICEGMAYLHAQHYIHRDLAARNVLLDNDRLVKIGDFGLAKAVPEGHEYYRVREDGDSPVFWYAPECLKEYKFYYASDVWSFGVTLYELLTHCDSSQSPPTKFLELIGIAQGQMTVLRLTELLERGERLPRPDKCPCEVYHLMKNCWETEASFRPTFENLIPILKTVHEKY
Assay: Tyk2 Radioactive Kinase Assay
Assay type: biochemical
Conditions: 10 μM compound; 10 μM ATP; read-out: Tyk2 JH1% Inhibition @ 10 μM
ASSAY READOUT: inhibition at 10 µM

Below are worked cases with known answers.
COMPOUND	inhibition at 10 µM
CNc1cc(Nc2cccnc2OC)nc2c(-c3cn(C(C)C)nn3)cnn12 [I-1008]	< 50%
CNc1cc(Nc2cccn([C@H]3CCC[C@H](O)C3)c2=O)nc2c(C(=O)N[C@@H]3C[C@@H]3F)cnn12 [I-1030]	< 50%
CNc1cc(Nc2cccn([C@H]3CCC[C@H]3O)c2=O)nc2c(C(=O)NC3CC3)cnn12 [I-963]	< 50%
CNc1cc(Nc2cccc(N3CC4(CCO4)C3)n2)nc2c(C(=O)N[C@@H]3CC[C@@H]3O)cnn12 [I-873]	< 50%
CNc1cc(-c2cn(C3CC3)c3ncccc23)nc2c(C(=O)N[C@H]3CC[C@H]3O)cnn12 [I-1080]	< 50%

Batch request: inhibition at 10 µM per item, same order as input.
1. CNc1cc(Nc2cccn([C@H]3CCN(CCC#N)C3)c2=O)nc2c(C(=O)NC3CC3)cnn12 [I-1011]
2. CNc1cc(-c2cn(C3CCOCC3)c3ncccc23)nc2c(C(=O)N[C@H]3CC[C@H]3O)cnn12 [I-1113]
3. CNc1cc(Nc2cccn([C@H]3CCC[C@@H](OC)C3)c2=O)nc2c(C(=O)N[C@@H]3CC[C@H]3OC)cnn12 [I-1126]

Result:
< 50%
< 50%
< 50%

###

Biological target: Tyk2/JAK2 (heterodimeric complex) (Homo sapiens (Human), UniProt P29597)
Sequence (P29597 whole entry, other chains not shown): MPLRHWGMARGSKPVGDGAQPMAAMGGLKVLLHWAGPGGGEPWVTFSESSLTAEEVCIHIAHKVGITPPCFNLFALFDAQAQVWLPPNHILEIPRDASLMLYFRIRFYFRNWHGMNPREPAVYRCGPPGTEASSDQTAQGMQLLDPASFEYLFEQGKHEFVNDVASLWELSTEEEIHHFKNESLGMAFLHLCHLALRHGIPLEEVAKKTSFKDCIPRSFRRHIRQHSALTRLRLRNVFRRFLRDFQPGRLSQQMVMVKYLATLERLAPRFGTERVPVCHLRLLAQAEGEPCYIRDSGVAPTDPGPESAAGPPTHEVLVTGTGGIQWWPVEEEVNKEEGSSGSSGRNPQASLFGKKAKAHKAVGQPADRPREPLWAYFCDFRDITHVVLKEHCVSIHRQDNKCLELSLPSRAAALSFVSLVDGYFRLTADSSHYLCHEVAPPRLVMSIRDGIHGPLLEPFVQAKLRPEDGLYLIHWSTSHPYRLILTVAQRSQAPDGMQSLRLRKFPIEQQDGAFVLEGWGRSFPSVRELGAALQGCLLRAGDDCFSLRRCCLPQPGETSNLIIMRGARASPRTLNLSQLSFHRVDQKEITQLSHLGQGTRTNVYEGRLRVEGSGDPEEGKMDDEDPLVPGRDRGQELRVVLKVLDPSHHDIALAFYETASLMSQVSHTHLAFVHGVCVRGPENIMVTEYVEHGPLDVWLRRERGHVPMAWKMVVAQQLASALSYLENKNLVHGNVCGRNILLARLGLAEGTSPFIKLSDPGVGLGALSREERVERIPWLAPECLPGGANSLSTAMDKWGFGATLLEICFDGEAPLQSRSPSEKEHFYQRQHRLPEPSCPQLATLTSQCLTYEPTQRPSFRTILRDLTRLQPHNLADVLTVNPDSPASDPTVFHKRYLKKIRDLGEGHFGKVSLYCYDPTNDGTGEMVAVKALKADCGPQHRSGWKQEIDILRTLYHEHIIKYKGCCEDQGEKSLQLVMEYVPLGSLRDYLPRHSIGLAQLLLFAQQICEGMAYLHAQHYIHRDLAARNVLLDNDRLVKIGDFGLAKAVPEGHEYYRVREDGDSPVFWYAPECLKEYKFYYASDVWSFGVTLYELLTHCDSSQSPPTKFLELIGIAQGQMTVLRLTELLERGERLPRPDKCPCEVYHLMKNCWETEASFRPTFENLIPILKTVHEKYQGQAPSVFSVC
Test: IL-12 Induced pSTAT4 in Human PBMC
Details: 1.7 ng/mL IL-12
pIC50: −log10 of the molar value.
Kindly state pIC50 for each of the entries shown.

Below are worked cases with known answers.
COMPOUND	pIC50
CNc1cc(Nc2cccn([C@@H]3CCC[C@@H](OC)C3)c2=O)nc2c(C(=O)N[C@H]3CC[C@@H]3OC)cnn12	> 7.00
CNc1cc(Nc2cccc(N3CCCC3=O)n2)nc2c(C(=O)N[C@H]3C[C@H]3F)cnn12	> 7.00
CNc1cc(Nc2cccnc2OC)nc2c(C(=O)NC[C@H](C)CO)cnn12	> 7.00
CNc1cc(Nc2cccnc2OC)nc2c(C(=O)N[C@@H]3CC[C@H]3O)cnn12 (stereo in doubt) [I-363]	> 7.00

Q: So what's the measured pIC50 for this one? CNc1cc(Nc2cccc(N3CCO[C@]4(CCOC4)C3)n2)nc2c(C(=O)NC3CC3)cnn12
Result: 6.30 to 7.00

###

Target: human TYK2 (JH2domain-pseudokinase) (Homo sapiens (Human), UniProt P29597)
Sequence (P29597 556-888): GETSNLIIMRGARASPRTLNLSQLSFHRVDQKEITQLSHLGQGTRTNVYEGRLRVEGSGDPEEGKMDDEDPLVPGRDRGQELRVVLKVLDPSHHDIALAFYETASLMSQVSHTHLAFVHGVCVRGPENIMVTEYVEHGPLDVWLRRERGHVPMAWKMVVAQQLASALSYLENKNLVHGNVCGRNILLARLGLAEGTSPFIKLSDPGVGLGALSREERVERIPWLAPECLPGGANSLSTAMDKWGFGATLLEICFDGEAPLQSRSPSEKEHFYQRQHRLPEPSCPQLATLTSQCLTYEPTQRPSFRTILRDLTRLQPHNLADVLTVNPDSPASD
Assay: TYK2 JH2 Domain Binding Assay (KINOMEscan)
ASSAY READOUT: Kd

COMPOUND	ASSAY READOUT	OBS VALUE
CNc1cc(Nc2cccnc2OC)nc2c(C(=O)N[C@H]3CC[C@H](O)C3)cnn12 [I-467]	Kd	0.2 to 1 nM

Batch request: Kd per item, same order as input.
1. CNc1cc(-c2cn(CCN3CCOCC3)c3ncccc23)nc2c(C(=O)N[C@@H]3COC[C@@H]3O)cnn12 [I-855]
2. CNc1cc(Nc2cccn(-c3ccccn3)c2=O)nc2c(C(=O)NCC(C)(C)CO)cnn12 [I-683]
3. CNc1cc(Nc2cc(Cl)cn(-c3cc(C)n(C)n3)c2=O)nc2c(C(=O)NC3CC3)cnn12 [I-314]
4. CNc1cc(-c2cn(C3CCOCC3)c3ncccc23)nc2c(C(=O)N[C@H]3CC[C@@H]3OC)cnn12 [I-1329]
5. CNc1cc(-c2cn([C@H]3CCCOC3)c3ncccc23)nc2c(C(=O)N[C@H]3CC[C@@H]3OC)cnn12 [I-1365]
6. CNc1cc(Nc2cccn([C@H]3CCCC[C@H]3OC)c2=O)nc2c(C(=O)N[C@H]3CC[C@@H]3OC)cnn12 [I-1097]
7. CNc1cc(Nc2cccn([C@@H]3CCCOC3)c2=O)nc2c(C(=O)N[C@H]3CCC[C@H](O)C3)cnn12 [I-703]

Result:
["1 to 10 nM", "< 0.2 nM", "< 0.2 nM", "> 10 nM", "< 0.2 nM", "< 0.2 nM", "< 0.2 nM"]

Batch request: Kd per item, same order as input.
1. CNc1cc(Nc2cccn([C@@H]3CCCN(CCF)C3)c2=O)nc2c(C(=O)N[C@@H]3CC[C@H]3OC)cnn12 [I-1095]
2. CNc1cc(Nc2cc(F)cnc2OCCOC)nc2c(C(=O)NC3CCC3)cnn12 [I-290]
3. CNc1cc(Nc2cccn(-c3ccc(C)nc3)c2=O)nc2c(C(=O)NC3CC3)cnn12 [I-765]
4. CNc1cc(Nc2cccn(-c3cnco3)c2=O)nc2c(C(=O)N[C@@H]3CC[C@@H]3O)cnn12 [I-1018]
5. CNc1cc(Nc2cccn([C@@H]3CCCOC3)c2=O)nc2c(C(=O)N[C@@H]3C[C@@H]3F)cnn12 [I-474]
6. CNc1cc(Nc2cc(C(F)(F)F)cn(-c3cnn(C)c3)c2=O)nc2c(C(=O)NC3CC3)cnn12 [I-523]
7. CNc1cc(Nc2cccnc2C(C)(F)F)nc2c(C(=O)NC3CC3)cnn12 [I-297]

Result:
1. < 0.2 nM
2. 0.2 to 1 nM
3. < 0.2 nM
4. 1 to 10 nM
5. < 0.2 nM
6. 0.2 to 1 nM
7. 0.2 to 1 nM

Q: So what's the measured Kd for this one? CNc1cc(-c2cn(C3CC3)c3ncccc23)nc2c(C(=O)N[C@H]3CCC[C@]3(C)O)cnn12 [I-1335]
Result: < 0.2 nM

###

Target: human TYK2 (JH2domain-pseudokinase) (Homo sapiens (Human))
Test: TYK2 JH2 Domain Binding Assay (KINOMEscan)
pKd: −log10 of the molar value.
ASSAY READOUT: pKd

Below are worked cases with known answers.
COMPOUND	pKd
CNc1cc(Nc2cccn(-c3cccnc3C)c2=O)nc2c(C(=O)NCC(C)(C)CO)cnn12	8.00 to 9.00
CNc1cc(Nc2cccn([C@@H]3CCC[C@@H](OC)C3)c2=O)nc2c(C(=O)N[C@@H]3C[C@@H]3F)cnn12	9.00 to 9.70
CCOc1ccc(-n2cccc(Nc3cc(N)n4ncc(C(N)=O)c4n3)c2=O)nn1	9.00 to 9.70

Now for another entry.
Q: So what's the measured pKd for this one? CNc1cc(Nc2cccn([C@@H]3CCCOC3)c2=O)nc2c(C(=O)N[C@H]3CC[C@H](O)C3)cnn12 [I-738]
Result: 9.00 to 9.70

###

Kindly state IC50 for each of the entries shown.
Molecular target: JAK2/JAK2 homdimeric complex (Homo sapiens (Human), UniProt O60674)
Sequence (O60674 whole entry): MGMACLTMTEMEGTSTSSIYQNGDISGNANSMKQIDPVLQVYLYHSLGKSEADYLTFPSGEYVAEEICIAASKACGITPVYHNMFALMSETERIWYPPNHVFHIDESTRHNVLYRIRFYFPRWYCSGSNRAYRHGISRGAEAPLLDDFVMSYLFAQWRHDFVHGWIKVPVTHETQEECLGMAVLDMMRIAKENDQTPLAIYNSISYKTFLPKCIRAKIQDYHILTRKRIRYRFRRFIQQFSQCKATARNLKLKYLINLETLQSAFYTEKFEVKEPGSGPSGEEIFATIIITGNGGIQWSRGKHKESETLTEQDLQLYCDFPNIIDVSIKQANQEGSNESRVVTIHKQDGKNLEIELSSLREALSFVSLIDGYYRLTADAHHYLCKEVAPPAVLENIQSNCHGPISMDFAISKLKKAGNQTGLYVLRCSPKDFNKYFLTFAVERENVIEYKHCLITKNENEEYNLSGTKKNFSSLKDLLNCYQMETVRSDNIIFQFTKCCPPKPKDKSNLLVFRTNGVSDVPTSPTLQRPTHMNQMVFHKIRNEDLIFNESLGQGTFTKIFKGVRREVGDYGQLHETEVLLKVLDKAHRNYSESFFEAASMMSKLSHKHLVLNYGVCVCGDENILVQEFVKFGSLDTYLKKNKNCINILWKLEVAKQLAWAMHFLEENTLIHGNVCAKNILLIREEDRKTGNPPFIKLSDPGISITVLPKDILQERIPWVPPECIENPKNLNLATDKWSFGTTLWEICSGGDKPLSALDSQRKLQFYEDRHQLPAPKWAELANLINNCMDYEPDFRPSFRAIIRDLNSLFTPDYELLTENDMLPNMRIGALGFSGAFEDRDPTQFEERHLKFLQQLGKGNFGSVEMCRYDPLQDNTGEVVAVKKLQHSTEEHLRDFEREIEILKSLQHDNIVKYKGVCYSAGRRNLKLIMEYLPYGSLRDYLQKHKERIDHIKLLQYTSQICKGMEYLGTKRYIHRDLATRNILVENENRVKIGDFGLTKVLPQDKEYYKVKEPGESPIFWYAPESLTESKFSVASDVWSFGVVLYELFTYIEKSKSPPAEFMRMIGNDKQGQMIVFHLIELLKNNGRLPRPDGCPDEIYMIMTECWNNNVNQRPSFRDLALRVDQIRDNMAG
Sequence (P32927 17-897 partner): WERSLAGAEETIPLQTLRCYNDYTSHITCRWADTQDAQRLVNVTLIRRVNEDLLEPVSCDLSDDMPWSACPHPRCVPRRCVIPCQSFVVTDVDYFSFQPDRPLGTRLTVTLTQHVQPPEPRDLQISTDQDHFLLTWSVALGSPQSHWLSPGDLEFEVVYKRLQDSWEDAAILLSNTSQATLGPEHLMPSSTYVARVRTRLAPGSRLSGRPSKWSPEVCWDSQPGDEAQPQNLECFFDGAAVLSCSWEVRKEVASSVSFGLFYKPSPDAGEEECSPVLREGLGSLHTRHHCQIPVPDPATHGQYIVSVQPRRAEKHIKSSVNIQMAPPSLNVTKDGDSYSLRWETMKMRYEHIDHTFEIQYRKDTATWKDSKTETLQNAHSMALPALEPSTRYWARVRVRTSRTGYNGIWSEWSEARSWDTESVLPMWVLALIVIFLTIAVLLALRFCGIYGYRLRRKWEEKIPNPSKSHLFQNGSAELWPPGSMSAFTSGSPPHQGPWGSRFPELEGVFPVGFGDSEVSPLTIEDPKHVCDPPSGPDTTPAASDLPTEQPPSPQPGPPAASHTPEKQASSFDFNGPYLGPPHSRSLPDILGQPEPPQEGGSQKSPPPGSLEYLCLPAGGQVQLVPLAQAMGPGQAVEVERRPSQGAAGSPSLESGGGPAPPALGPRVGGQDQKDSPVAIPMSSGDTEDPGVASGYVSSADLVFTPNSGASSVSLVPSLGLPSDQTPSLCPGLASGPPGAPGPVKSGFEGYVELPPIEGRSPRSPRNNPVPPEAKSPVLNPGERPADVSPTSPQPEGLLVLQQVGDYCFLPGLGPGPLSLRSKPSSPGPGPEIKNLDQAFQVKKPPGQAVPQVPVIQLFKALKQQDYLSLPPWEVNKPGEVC
Assay: GM-CSF Induced pSTAT5 in Human PBMC
Details: GM-CSF 5 ng/mL for 20 minutes, pSTAT5 by MSD, read-out: PBMC_GMCSF_pSTAT5 IC50

COMPOUND	TARGET	OBS VALUE
CNc1cc(Nc2cccnc2OC(F)F)nc2c(C(=O)N[C@H]3C[C@H]3F)cnn12	JAK2/JAK2 homdimeric complex (Homo sapiens (Human), UniProt O60674)	> 12.5 µM
CNc1cc(-c2cn(C(C)C)c3ncc(C)cc23)nc2c(C(N)=O)cnn12	JAK2/JAK2 homdimeric complex (Homo sapiens (Human), UniProt O60674)	> 50 µM
CNc1cc(Nc2cccn(-c3ccnc(C)n3)c2=O)nc2c(C(=O)N[C@@H]3C[C@@H]3F)cnn12 (stereo in doubt)	JAK2/JAK2 homdimeric complex (Homo sapiens (Human), UniProt O60674)	> 12.5 µM

Batch request: IC50 per item, same order as input.
1. CNc1cc(Nc2cccn(-c3ccc(N4CCOCC4)cc3)c2=O)nc2c(C(=O)N[C@H]3C[C@H]3F)cnn12
2. CNc1cc(Nc2cccn([C@H]3CCC[C@H]3O)c2=O)nc2c(C(=O)N[C@@H]3C[C@@H]3F)cnn12
3. CNc1cc(Nc2cc(Cl)cn(-c3cnn(C)c3)c2=O)nc2c(C(=O)N[C@H]3C[C@H]3F)cnn12
4. CNc1cc(Nc2cccn(C(C)C)c2=O)nc2c(C(=O)N[C@@H]3CC[C@H]3O)cnn12
5. CNc1cc(Nc2cc(Cl)cn(-c3ccc(C)nn3)c2=O)nc2c(C(=O)N[C@H]3C[C@H]3F)cnn12

Result:
1. > 2.5 µM
2. > 50 µM
3. > 12.5 µM
4. > 50 µM
5. > 50 µM

###

Target: human TYK2 (JH2domain-pseudokinase) (Homo sapiens (Human), UniProt P29597)
Experiment: TYK2 JH2 Domain Binding Assay (KINOMEscan)
ASSAY READOUT: Kd

COMPOUND	Kd
CNc1cc(Nc2cccnc2OC2CCC2)nc2c(C(=O)N[C@H]3C[C@H]3F)cnn12 [I-170]	< 0.2 nM
CNc1cc(Nc2cccn3cnnc23)nc2c(C(=O)N[C@H]3CC[C@@H]3OC)cnn12 [I-1102]	< 0.2 nM
CNc1cc(-c2cn(C(C)C)c3ncc(F)cc23)nc2c(C(=O)N[C@H]3CC[C@H]3O)cnn12 [I-1387]	1 to 10 nM
CNc1cc(-c2cn(CCN3CCOCC3)c3ncccc23)nc2c(C(=O)N[C@H]3CC[C@@H]3O)cnn12 [I-836]	0.2 to 1 nM
CNc1cc(Nc2cccn([C@@H]3CCC[C@@H](O)C3)c2=O)nc2c(C(=O)N[C@@H]3CC[C@H]3OC)cnn12 [I-1130]	< 0.2 nM
CNc1cc(Nc2cccn(-c3cccc(C(C)(C)O)n3)c2=O)nc2c(C(=O)NC3CC3)cnn12 [I-155]	< 0.2 nM

Batch request: Kd per item, same order as input.
1. CNc1cc(-c2cn(C3CC3)c3ncccc23)nc2c(C(=O)N[C@@H]3C[C@@H]3F)cnn12 [I-961]
2. CNc1cc(Nc2cccn(C3CC(F)(F)C3)c2=O)nc2c(C(=O)N[C@H]3COC[C@H]3O)cnn12 [I-1206]

Result:
1: < 0.2 nM; 2: 1 to 10 nM

Batch request: Kd per item, same order as input.
1. CNc1cc(Nc2cc(C)cnc2OC2CC2)nc2c(C(=O)N[C@H]3C[C@H]3F)cnn12 [I-279]
2. CNc1cc(Nc2cc(Cl)cn(C3CCOCC3)c2=O)nc2c(C(=O)N[C@@H]3CC[C@H]3O)cnn12 [I-825]
3. CNc1cc(Nc2cccn(C(C)C)c2=O)nc2c(C(=O)N[C@@H]3CCC[C@@](C)(O)C3)cnn12 [I-1337]
4. CNc1cc(Nc2cccn(C(C)C)c2=O)nc2c(C(=O)N[C@H]3CC[C@@H](O)C3)cnn12 [I-1265]
5. CNc1cc(-c2c[nH]c3c(C)cc(C)cc23)nc2c(C(N)=O)cnn12 [I-36]
6. CNc1cc(-c2cn([C@H]3CCN(CCF)C3)c3ncccc23)nc2c(C(=O)NC3CC3)cnn12 [I-1363]
7. CNc1cc(Nc2cccn(C3CCCN(CCC#N)C3)c2=O)nc2c(C(=O)NC3CC3)cnn12 (centres unmarked) [I-1009]
8. CNc1cc(Nc2cccn(-c3ccc(N4CCOCC4)cc3)c2=O)nc2c(C(=O)N[C@H]3C[C@H]3F)cnn12 [I-135]

Result:
["< 0.2 nM", "< 0.2 nM", "< 0.2 nM", "1 to 10 nM", "< 0.2 nM", "0.2 to 1 nM", "0.2 to 1 nM", "< 0.2 nM"]

Batch request: Kd per item, same order as input.
1. CNc1cc(Nc2cccn(-c3ccc(F)cn3)c2=O)nc2c(C(=O)NC3CCC3)cnn12 [I-238]
2. CNc1cc(Nc2cccn([C@H]3CCN(CCC#N)C3)c2=O)nc2c(C(=O)N[C@@H]3C[C@@H]3F)cnn12 [I-986]
3. CNc1cc(Nc2cccnc2C(C)(F)F)nc2c(C(=O)NCC(C)(C)CO)cnn12 [I-355]
4. CNc1cc(Nc2cccn(-c3ccccn3)c2=O)nc2c(C(=O)N[C@H]3C[C@@H]3OC)cnn12 [I-1412]
5. CNc1cc(Nc2cccn(-c3oc(C)nc3C)c2=O)nc2c(C(=O)NC3CC3)cnn12 [I-937]

Result:
1: < 0.2 nM; 2: < 0.2 nM; 3: 0.2 to 1 nM; 4: 0.2 to 1 nM; 5: 1 to 10 nM

Batch request: Kd per item, same order as input.
1. CNc1cc(Nc2cccn(C(C)C)c2=O)nc2c(C(=O)N[C@@H]3CCC[C@@](C)(O)C3)cnn12 [I-1243]
2. CNc1cc(Nc2cccnc2OC2CC2)nc2c(C(=O)N[C@H]3C[C@@H]3O)cnn12 [I-439]
3. CNc1cc(Nc2ccc3c(n2)OCCO3)nc2c(C(=O)NC3CC3)cnn12 [I-531]

Result:
1: 1 to 10 nM; 2: 0.2 to 1 nM; 3: 0.2 to 1 nM
